# System: TO-N3-2 (biotin conjugate)
# ASSAY_NAME: pull-down binding Z-score (relative to library population); higher = stronger binding
# CONDITIONS: RNA library: Library-2
RECORDED_ENDPOINT: pull-down binding Z-score
Form field (numeric): enter value without unit.

# ENTRY_SEQUENCE, NUMERIC_READOUT
records = [
    ("UCAGCUGUGGAAAGUAAGAAAGCUGG [hsa-mir-30c-2]", 1.31),
    ("UUCUGCUGAAGACUGGUCUCUUCAUGUGUGAG [hsa-mir-6133]", 0.00769),
    ("GUGGCACUGAGAAUUUGACUAAAGAAGGUGCCAC", 0.38),
    ("UGUAAGUUUGCGAUGAGACACUACA [hsa-mir-144]", 0.341),
    ("UGAGUUUA [hsa-mir-451a]", -0.372),
]

Would you kindly share the measured pull-down binding Z-score for GAGGCCAGAGGUGCCC [hsa-mir-4292] ?
1.3

====

# Tested on: TO-N3-2 (biotin conjugate)
# ASSAY_NAME: pull-down binding Z-score (relative to library population); higher = stronger binding
# CONDITIONS: RNA library: Library-2
RECORDED_ENDPOINT: pull-down binding Z-score
Form field (numeric): enter value without unit.

Some sequences with recorded pull-down binding Z-score:
# ENTRY_SEQUENCE, pull-down binding Z-score
rows = [
    ("GCCGCCACUAGAGGAGCUACUGUAGUAAUUGGAACAAGCAAAUUCUAUGGUGGUUGGC", 1.24),
    ("GAGGGGUGUAUACUGCUGCCGUGAACAUGAGCAUGAAAUUGCUUGGUACACGGAACGUUCUGAAAAGAGCUAUGAAUUGCAGACACCUUUU", 0.475),
    ("UAUGUCUGAAGCAAAAUGUUGGACUGAGACUGACCUUACUAAAGGACCUCAUGAAUUUUGCUCUCAACAUA", -0.671),
    ("CAGGCCAGGGGCAGACAGUGGACAGAGAACAGUGCCCAAGACCACUG [hsa-mir-378e]", 1.73),
    ("GGAAGACACAUGAGCAGUGCCUCCACUUCACGCCUCUCCC [hsa-mir-6780b]", 0.746),
    ("AACAGCAGGAUUGGCUGUAGCUGUU [hsa-mir-2117]", 0.369),
    ("CUCUCAUUUUGUUAACUUAGACAACCUGAGAG", -1.2),
]

# input for lookup
Would you kindly share the measured pull-down binding Z-score for AUCUUAGGGAAUUUGUGUUUAAGAAUAUUGAUGGUUAUUUUAAAAUAUAUUCUAAGCACACGCCUAUUAAUUUAGUGCGUGAUCUCCCUCAGGGU ?
-0.222

====

# Tested on: TO-N3 (biotin conjugate)
# ASSAY_NAME: pull-down binding Z-score (relative to library population); higher = stronger binding
# CONDITIONS: RNA library: Library-2
RECORDED_ENDPOINT: pull-down binding Z-score
Form field (numeric): enter value without unit.

Would you kindly share the measured pull-down binding Z-score for UGGGGAGUUGAACCUA [IAV_invivo_PB2_1_Motif_19+IAV_invivo_PB2_1_Motif_19] ?
0.376

Would you kindly share the measured pull-down binding Z-score for ACAGACUUCAUUAAGAUGUGGUGCUUGCAUACGUAGACCAUUCUUAUGUUGUAAAUGCUGUUACGACCAUGUCAUAUCAACAUCACAUAAAUUAGUCUUGUCUGU ?
-0.512

Would you kindly share the measured pull-down binding Z-score for UAUGAAGGUAAGCAUUUUUGUA [hsa-mir-3935] ?
-0.614

Would you kindly share the measured pull-down binding Z-score for UUCUUUGAGGAUCUGGCCUAAAGAG [hsa-mir-202] ?
1.27

# credit: the supplement of paper PMC11865577
